The origin of these recorded values is ChEMBL document CHEMBL1139130.

System: Mus musculus
Assay: AUC in BALB/C mouse at 50 mg/kg, po after 4 hrs
Format: ADME, organism-based, Plasma
Set-up: time < 4 hr, dose 50 mg/kg, route oral
Settings: in vivo
quantity: AUC (µM·h)
Give your result in µM·h as a bare value.

AUC lookup needed for Fc1cccc(Cn2ncc3cc(Nc4ncnn5ccc(COC[C@@H]6CNCCO6)c45)ccc32)c1 , thanks.
29

---

Test system: NCI-N87
Assay: Antiproliferative activity against human N87 cells
Assay type: functional, cell-based
pIC50: −log10 of the molar value.
Quick rule for you: pIC50 at 6 or higher means Y, lower means N.

molecule: Fc1cccc(Cn2ncc3cc(Nc4ncnn5ccc(COC[C@@H]6CNCCO6)c45)ccc32)c1
class_name: Y

molecule: NC(=O)COCc1ccn2ncnc(Nc3ccc4c(cnn4Cc4cccc(F)c4)c3)c12
class_name: N

molecule: COc1cn2ncnc(Nc3ccc4c(cnn4Cc4cccc(F)c4)c3)c2c1COC[C@@H]1CNCCO1
class_name: N

molecule: Fc1cccc(Cn2ncc3cc(Nc4ncnn5ccc(COCC6CNCCOC6)c45)ccc32)c1 (stereo unspecified)
class_name: N

In plain terms: is recorded pIC50 at least 6 for c1ccc(Cn2ncc3cc(Nc4ncnn5ccc(COC[C@@H]6CNCCO6)c45)ccc32)nc1 ?
Y

Item c1cncc(Cn2ncc3cc(Nc4ncnn5ccc(COC[C@@H]6CNCCO6)c45)ccc32)c1 with pIC50 of 6 or above?
Y

Confirm if pIC50 reported for the molecule NCCOCc1ccn2ncnc(Nc3ccc4c(cnn4Cc4cccc(F)c4)c3)c12 is 6 or above.
N

Given Fc1cccc(Cn2ncc3cc(Nc4ncnn5ccc(COC6CCNCC6)c45)ccc32)c1 , state whether its pIC50 is at least 6.
Y

Given the entry O=C(O)COCc1ccn2ncnc(Nc3ccc4c(cnn4Cc4cccc(F)c4)c3)c12 , answer whether its pIC50 meets or surpasses 6.
N

Does the molecule NCCCOCc1ccn2ncnc(Nc3ccc4c(cnn4Cc4cccc(F)c4)c3)c12 have recorded pIC50 that is 6 or more?
Y

Quick check: does OCc1ccn2ncnc(Nc3ccc4c(cnn4Cc4cccc(F)c4)c3)c12 have pIC50 greater than or equal to 6?
N

Would you say C[C@H](c1cccc(F)c1)n1ncc2cc(Nc3ncnn4ccc(COC[C@@H]5CNCCO5)c34)ccc21 shows pIC50 at minimum 6?
Y

Could you please find out whether C[C@@H](c1ccccc1)n1ncc2cc(Nc3ncnn4ccc(COC[C@@H]5CNCCO5)c34)ccc21 has pIC50 that meets 6 or exceeds it?
N

Identify whether the reported pIC50 of the following molecule is 6 or greater: Cc1ccn2ncnc(Nc3ccc4c(cnn4Cc4cccc(F)c4)c3)c12
Y

Is pIC50 at least 6? Consider COC(=O)COCc1ccn2ncnc(Nc3ccc4c(cnn4Cc4cccc(F)c4)c3)c12
N

Could you tell me if the measured pIC50 of Fc1cccc(COc2ccc(Nc3ncnn4ccc(COC[C@@H]5CNCCO5)c34)cc2Cl)c1 reaches 6 or more?
Y

Could you tell me if the measured pIC50 of Fc1cccc(Cn2ncc3cc(Nc4ncnn5ccc(COC[C@H]6CNCCO6)c45)ccc32)c1 reaches 6 or more?
Y

Reported pIC50 at or above 6? Fc1cccc(Cn2ncc3cc(Nc4ncnn5ccc(COC[C@@H]6COCCN6)c45)ccc32)c1
N
